Measured pIC50, listed per entry.
Target desc: Thrombin (Homo sapiens, UniProt P00734)
Measurement protocol: Related protease inhibition: Thrombin (fluorogenic substrate at Km)
Format: biochemical
Run parameters: class symbols per Table 18
pIC50: −log10 of the molar value.

Use these answered entries as a reference point.
> print(dat)
                                   compound                              target.desc  result.value
1  Cn1ccc(OCC23CC(CNc4cccc5c(N)nccc45)(CCO2)C3)cc1=O  Thrombin (Homo sapiens, UniProt P00734)        < 4.40
2  Cn1ccc(OCC23CN(C(=O)NCc4ccccc4)C(CNc4cccc5c(N)nccc45)(C2)C3)cc1=O  Thrombin (Homo sapiens, UniProt P00734)        < 4.40
3  Cn1ccc(OCC23COC(CNc4cccc5c(N)nccc45)(C2)C3)cc1=O  Thrombin (Homo sapiens, UniProt P00734)        < 4.40
4  Cn1ccc(OCC23CN(CCCc4ccccc4)C(CNc4cccc5c(N)nccc45)(C2)C3)cc1=O  Thrombin (Homo sapiens, UniProt P00734)        < 4.40
5  Nc1nccc2c(NCC34CC(COC5CCn6ccnc6C5)(C3)C4)cccc12 (racemic) [Example 1002]  Thrombin (Homo sapiens, UniProt P00734)  4.40 to 5.00

stdin: If you can, please state the reported pIC50 value of Nc1nccc2c(NCC34COC(COc5ccc6nnc(C(F)F)n6n5)(C3)C4)cccc12 .
stdout: < 4.40

stdin: If you can, please state the reported pIC50 value of Cc1cn2ccc(OCC34CC(CNc5cccc6c(N)nccc56)(C3)C4)cc2n1 .
stdout: 4.40 to 5.00

stdin: If you can, please state the reported pIC50 value of Nc1nccc2c(NCC34CC(COc5ccc6nccn6c5)(C3)C4)cccc12 .
stdout: 4.40 to 5.00
